# assay: Half life in C57/6J mouse at 20 mg/kg, po measured for 24 hrs
# Assay type: ADME, organism-based
# particulars: in vivo
assay_endpoint: half-life (h)
Report the value in h with no unit label.

Consider the molecule shown here: OC[C@H]1O[C@@H](O[C@@H]2OC=C[C@H]3[C@H](O)[C@@H]4O[C@]4(COc4ccc(C(F)(F)F)cc4)[C@@H]23)[C@H](O)[C@@H](O)[C@@H]1O What is its recorded half-life? 1.01

* * *

# assay: MRT (0 to t) in C57/6J mouse at 5 mg/kg, iv measured for 24 hrs
# Type: ADME, organism-based
# particulars: in vivo
assay_endpoint: MRT last at 24 h (min)
Report the value in min with no unit label.

Consider the compound shown here: OC[C@H]1O[C@@H](O[C@@H]2OC=C[C@H]3[C@H](O)[C@@H]4O[C@]4(COc4ccc(C(F)(F)F)cc4)[C@@H]23)[C@H](O)[C@@H](O)[C@@H]1O What is its recorded MRT last at 24 h? 31.2

* * *

# assay: AUC (0 to t) in C57/6J mouse at 20 mg/kg, po measured for 24 hrs
# Type: ADME, organism-based
# particulars: in vivo
assay_endpoint: AUC(0-t) at 24 h (ng·h/mL)
Report the value in ng·h/mL with no unit label.

Consider the compound shown here: OC[C@H]1O[C@@H](O[C@@H]2OC=C[C@H]3[C@H](O)[C@@H]4O[C@]4(COc4ccc(C(F)(F)F)cc4)[C@@H]23)[C@H](O)[C@@H](O)[C@@H]1O What is its recorded AUC(0-t) at 24 h? 1820

* * *

# assay: Tmax in C57/6J mouse at 5 mg/kg, iv measured for 24 hrs
# Assay type: ADME, organism-based
# particulars: in vivo
assay_endpoint: Tmax (min)
Report the value in min with no unit label.

Consider the molecule shown here: OC[C@H]1O[C@@H](O[C@@H]2OC=C[C@H]3[C@H](O)[C@@H]4O[C@]4(COc4ccc(C(F)(F)F)cc4)[C@@H]23)[C@H](O)[C@@H](O)[C@@H]1O What is its recorded Tmax? 4.98

* * *

# assay: Tmax in C57/6J mouse at 20 mg/kg, po measured for 24 hrs
# Type: ADME, organism-based
# particulars: in vivo
assay_endpoint: Tmax
Remember to put the unit after the number in your answer.

Consider the molecule shown here: OC[C@H]1O[C@@H](O[C@@H]2OC=C[C@H]3[C@H](O)[C@@H]4O[C@]4(COc4ccc(C(F)(F)F)cc4)[C@@H]23)[C@H](O)[C@@H](O)[C@@H]1O What is its recorded Tmax? 1.42 h

* * *

# assay: Metabolic stability in mouse liver microsomes assessed as intrinsic clearance measured for 5 to 60 mins in presence of NADPH by LC-MS/MS analysis
# Format: ADME, Microsome
# particulars: time 5-60 min, read-out: CLH
assay_endpoint: CLint scaled (mL/min/kg)
Report the value in mL/min/kg with no unit label.

Consider the molecule shown here: O=C(O)Cc1ccccc1Nc1c(Cl)cccc1Cl What is its recorded CLint scaled? 82.9

* * *

# assay: Metabolic stability in human liver microsomes assessed as half life measured for 5 to 60 mins in presence of NADPH by LC-MS/MS analysis
# Format: ADME, Microsome
# particulars: time 5-60 min
assay_endpoint: half-life

Consider the compound shown here: OC[C@H]1O[C@@H](O[C@@H]2OC=C[C@H]3[C@H](O)[C@@H]4O[C@]4(COc4ccc(C(F)(F)F)cc4)[C@@H]23)[C@H](O)[C@@H](O)[C@@H]1O What is its recorded half-life? > 2.42 h
